assay: survival of yeast exposed to agent; type: cell-based, Saccharomyces cerevisiae; conditions: yeast strain rs112, 40 mg/ml
Property label: viability at 17 h (%)

> print(dat)
   item.smiles  experimental.result
1    CCOC(N)=O                   10

----------
test system: strain RS112 (heteroalleles ade2-40 and ade2-101); assay: ICC (interchromosomal gene conversion) between heteroalleles ade2-40 and ade2-101; type: cell-based, Saccharomyces cerevisiae
Property label: ICC result in words

> print(dat)
                                   molecule       property.label  experimental.result
1  CCOS(C)(=O)=O [EMS, ethyl methanesulphonate]  ICC result in words            inducible
2  O=[N+]([O-])c1cc[n+]([O-])c2ccccc12 [NQO, 4-nitroquinoline-N-oxide]  ICC result in words            inducible
3  COS(C)(=O)=O [MMS, methyl methane sulphonate]  ICC result in words            inducible

----------
test: SCC (sister chromatid conversion) intrachromosomal recombination system, deletion alleles of his3; assay type: cell-based, Saccharomyces cerevisiae; conditions: yeast strain rs112; versus untreated control; read-out: induction for SCC / increase in SCC
Property label: fold induction

> print(dat)
                                   compound  property.label  experimental.result
1  CCOS(C)(=O)=O [EMS, ethyl methanesulphonate]  fold induction            20 to 150
2  O=[N+]([O-])c1cc[n+]([O-])c2ccccc12 [NQO, 4-nitroquinoline-N-oxide]  fold induction            20 to 150
3                                       C=O  fold induction                  ~20
4  COS(C)(=O)=O [MMS, methyl methane sulphonate]  fold induction            20 to 150

----------
experiment: survival of yeast exposed to agent; type: cell-based, Saccharomyces cerevisiae; details: yeast strain rs112, 0.03 mg/ml
Property label: viability at 17 h (%)

> print(dat)
   item.smiles  experimental.result
1          C=O                   53

----------
test: survival of yeast exposed to agent; format: cell-based, Saccharomyces cerevisiae; settings: yeast strain rs112, 0.005 %
Property label: viability at 17 h (%)

> print(dat)
                                   compound  experimental.result
1  COS(C)(=O)=O [MMS, methyl methane sulphonate]                   97

----------
experiment: survival of yeast exposed to agent; type: cell-based, Saccharomyces cerevisiae; conditions: yeast strain rs112, 0.07 mg/ml
Property label: viability at 17 h (%)

> print(dat)
             compound     property.label  unit.descriptor  experimental.result
1  C=O [Formaldehyde]  viability at 17 h                %                  2.2

----------
test system: strain RS112 (his3 deletion alleles); assay: SCC (sister chromatid conversion) intrachromosomal recombination system, deletion alleles of his3; format: cell-based, Saccharomyces cerevisiae
Property label: SCC result in words

> print(dat)
                                   compound                       subject.of.test       property.label  experimental.result
1                        C=O [Formaldehyde]  strain RS112 (his3 deletion alleles)  SCC result in words        test positive
2  COS(C)(=O)=O [MMS, methyl methane sulphonate]  strain RS112 (his3 deletion alleles)  SCC result in words            inducible
3  CCOS(C)(=O)=O [EMS, ethyl methanesulphonate]  strain RS112 (his3 deletion alleles)  SCC result in words            inducible
4             C=CCc1ccc(O)c(OC)c1 [eugenol]  strain RS112 (his3 deletion alleles)  SCC result in words        test positive
5  O=[N+]([O-])c1cc[n+]([O-])c2ccccc12 [NQO, 4-nitroquinoline-N-oxide]  strain RS112 (his3 deletion alleles)  SCC result in words            inducible

Recorded values, source patent US4997757A.
